assay: Half-life in Pseudomonas aeruginosa ATCC 27853 infected neutropenic ICR mouse at 150 mg/kg, sc administered as single dose 2 hrs postinfection; assay type: ADME, organism-based; set-up: dose 150 mg/kg, route subcutaneous; settings: in vivo
Endpoint: half-life (min)
Response body: numeric value in min, unit text excluded.

Using known records, supply half-life for `C[C@@H](O)[C@H]1C(=O)N2C(C(=O)O)=C(S[C@@H]3CN[C@H](CNS(N)(=O)=O)C3)[C@H](C)[C@H]12`
26.4

###

test: Half-life in Pseudomonas aeruginosa ATCC 27853 infected neutropenic ICR mouse at 10 mg/kg, sc administered as single dose 2 hrs postinfection; assay type: ADME, organism-based; design: dose 10 mg/kg, route subcutaneous; settings: in vivo
Endpoint: half-life (min)
Kindly answer with a numeric value in min, unit omitted.

Name the recorded half-life of the molecule listed here: `C[C@@H](O)[C@H]1C(=O)N2C(C(=O)O)=C(S[C@@H]3CN[C@H](CNS(N)(=O)=O)C3)[C@H](C)[C@H]12`
24.6
